Test system: Escherichia coli
Assay: Antibacterial activity against wild type Escherichia coli NCIM 2065 after 24 hrs by broth micro dilution method
Assay type: functional
Conditions: NCIM 2065, 24 h

molecule: O=S(=O)(Nc1nccs1)c1ccc(Cl)cc1
MIC / µg/mL: 3.1
--
molecule: O=[N+]([O-])c1ccc(S(=O)(=O)n2ncc3cc([N+](=O)[O-])ccc32)cc1
MIC / µg/mL: 3.1
--
molecule: Cc1ccc(S(=O)(=O)n2cnc3ccccc32)cc1
MIC / µg/mL: 6.2
--
molecule: O=C(N[C@H](CO)[C@H](O)c1ccc([N+](=O)[O-])cc1)C(Cl)Cl [CHLORAMPHENICOL]
MIC / µg/mL: 6.2
--
molecule: O=S(=O)(c1ccc(Cl)cc1)n1cnc2ccccc21
MIC / µg/mL: 3.1
--
molecule: C[C@@H]1C[C@@H]([C@H](O)CC2CC(=O)NC(=O)C2)C(=O)[C@@H](C)C1 [CYCLOHEXIMIDE]
MIC / µg/mL: 12.5
--
molecule: Cc1cc(NS(=O)(=O)c2ccc(N)cc2)no1 [SULFAMETHOXAZOLE]
MIC / µg/mL: 3.1
